- assay info: qHTS assay for small molecules that induce genotoxicity in human embryonic kidney cells expressing luciferase-tagged ATAD5 (AID 651632); note: nearly all actives have a fitted effect of over 15% in size
- conditions: HEK293T ATAD5-luciferase induction, 16 h; series mostly up to 83.3 µM
Results filed as inconclusive are left out. The source made the active and inactive calls. Calls come from the whole dose curve; as a rule, active = well fitted activation curve with a large enough effect in the repeat runs; inconclusive = weak or mixed curves; inactive = no such curve, though single readings can be large or run the other way.

[
  {
    "molecular string": "BrCCc1ccccc1",
    "activation": "inactive"
  },
  {
    "molecular string": "C#CC(C)(C)O",
    "activation": "inactive"
  },
  {
    "molecular string": "CC(C)(C)C(=O)C(Cl)Cl",
    "activation": "inactive"
  }
]

---

- target desc: Retinoic acid receptor RXR-alpha (Homo sapiens) (UniProt P19793)
- Sequence (P19793 whole entry, looked up): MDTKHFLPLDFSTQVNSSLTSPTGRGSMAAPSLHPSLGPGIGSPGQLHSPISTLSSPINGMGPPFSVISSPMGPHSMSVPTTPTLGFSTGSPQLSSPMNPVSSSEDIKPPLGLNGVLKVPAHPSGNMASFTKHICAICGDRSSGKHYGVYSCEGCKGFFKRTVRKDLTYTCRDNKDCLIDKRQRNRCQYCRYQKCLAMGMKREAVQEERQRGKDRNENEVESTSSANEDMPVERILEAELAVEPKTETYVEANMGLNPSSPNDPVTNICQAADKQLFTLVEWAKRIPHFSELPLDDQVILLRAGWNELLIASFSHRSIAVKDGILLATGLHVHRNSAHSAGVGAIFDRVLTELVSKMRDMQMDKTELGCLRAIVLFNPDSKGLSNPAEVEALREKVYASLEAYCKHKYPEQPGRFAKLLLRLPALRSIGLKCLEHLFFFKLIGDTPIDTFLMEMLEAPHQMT
- assay info: qHTS assay to identify small molecule agonists of the RXR signaling pathway (AID 1159527); note: nearly all actives have a fitted effect of over 35% in size
- conditions: HEK293T RXRa-UAS-bla, beta-lactamase ratio, 16 h; series mostly up to 76.8 µM
Records with an inconclusive call do not appear. Active and inactive are the calls of the source. Calls come from the whole dose curve.
Possible outcomes: Yes (active), No (inactive)

[
  {
    "molecular string": "Cc1cccc2sc3nncn3c12",
    "target desc": "Retinoic acid receptor RXR-alpha (Homo sapiens) (UniProt P19793)",
    "cat": "No"
  },
  {
    "molecular string": "CCCOc1nn(C(=O)NS(=O)(=O)c2ccccc2C(=O)OC)c(=O)n1C",
    "target desc": "Retinoic acid receptor RXR-alpha (Homo sapiens) (UniProt P19793)",
    "cat": "No"
  },
  {
    "molecular string": "CS(=O)(=O)c1ccc(C(=O)C2C(=O)CCCC2=O)c(Cl)c1COCC(F)(F)F",
    "target desc": "Retinoic acid receptor RXR-alpha (Homo sapiens) (UniProt P19793)",
    "cat": "No"
  },
  {
    "molecular string": "N#CC(Br)(Br)C(N)=O",
    "target desc": "Retinoic acid receptor RXR-alpha (Homo sapiens) (UniProt P19793)",
    "cat": "Yes"
  },
  {
    "molecular string": "COP(=O)(OC)O/C(C)=C/C(=O)N(C)C",
    "target desc": "Retinoic acid receptor RXR-alpha (Homo sapiens) (UniProt P19793)",
    "cat": "No"
  }
]

---

- target desc: Nuclear receptor subfamily 1 group I member 2 (Homo sapiens) (UniProt O75469)
- Sequence (O75469 whole entry, looked up): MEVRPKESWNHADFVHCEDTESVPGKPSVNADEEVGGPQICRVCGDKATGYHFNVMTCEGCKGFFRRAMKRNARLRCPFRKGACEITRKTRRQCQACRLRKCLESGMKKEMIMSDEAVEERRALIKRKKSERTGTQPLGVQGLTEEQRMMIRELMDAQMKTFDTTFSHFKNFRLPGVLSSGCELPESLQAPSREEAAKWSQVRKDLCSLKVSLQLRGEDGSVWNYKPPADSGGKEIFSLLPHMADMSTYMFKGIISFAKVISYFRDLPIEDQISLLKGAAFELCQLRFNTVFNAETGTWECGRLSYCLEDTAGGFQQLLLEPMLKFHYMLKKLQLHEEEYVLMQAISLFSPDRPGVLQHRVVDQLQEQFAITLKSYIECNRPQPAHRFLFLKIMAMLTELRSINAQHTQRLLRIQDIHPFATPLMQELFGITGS
- assay info: Human pregnane X receptor (PXR) small molecule agonists, qHTS assay (AID 1346982); note: nearly all actives have a fitted effect of over 35% in size
- conditions: PXR-Luc HepG2, CYP3A4 luciferase reporter, 24 h; series mostly up to 92.4 µM
Inconclusive results are not listed. Calls of active or inactive are those of the source. Calls follow the shape of the dose curve; as a rule, active = well fitted activation curve with a large enough effect in the repeat runs; inconclusive = weak or mixed curves; inactive = no such curve, though single readings can be large or run the other way.
measurement name: outcome

[
  {
    "compound": "CC(C)(C)C(=O)C(Cl)Cl",
    "endpoint value": "inactive"
  },
  {
    "compound": "ClCCCCCCCl",
    "endpoint value": "inactive"
  },
  {
    "compound": "CC(Cc1ccccc1)NCCn1cnc2c1c(=O)n(C)c(=O)n2C (stereo not given)",
    "endpoint value": "inactive"
  },
  {
    "compound": "CC(C)N(Cc1ccccc1)C(=O)C(C)(C)C",
    "endpoint value": "inactive"
  },
  {
    "compound": "COc1ccc(C=O)cc1O",
    "endpoint value": "inactive"
  }
]

---

- assay info: A CellTox Green Cytotoxicity Assay to monitor cytotoxicity in HepG2 cells - 40 hour (AID 1224879); note: nearly all actives have a fitted effect of over 40% in size
- conditions: CellTox Green fluorescence; series mostly up to 76.8 µM
Records with an inconclusive call do not appear. The source made the active and inactive calls. The call rests on the fitted dose curve; in most records, active means well fitted activation curve with a large enough effect in the repeat runs; inconclusive means weak or mixed curves; inactive means flat fitted curve, though single readings scatter.
Possible outcomes: active, inactive

[
  {
    "compound": "CCCN1CCC[C@@H]2Cc3nc(N)ncc3C[C@H]21",
    "cat": "active"
  },
  {
    "compound": "CCOC1Oc2ccc(OS(C)(=O)=O)cc2C1(C)C (stereo unspecified)",
    "cat": "inactive"
  },
  {
    "compound": "C[N+]1(C)CCCCC1",
    "cat": "inactive"
  },
  {
    "compound": "CCOC(=O)COc1ccc(Cl)cc1Cl",
    "cat": "inactive"
  },
  {
    "compound": "O=C(Cl)/C=C/C(=O)Cl",
    "cat": "inactive"
  },
  {
    "compound": "CCOC(=O)CC(SP(=S)(OC)OC)C(=O)OCC (stereo unspecified)",
    "cat": "inactive"
  },
  {
    "compound": "CCc1ccc(C2CCNCC2)cc1",
    "cat": "inactive"
  },
  {
    "compound": "BrCCc1ccccc1",
    "cat": "inactive"
  },
  {
    "compound": "CCN(CC)CCOC(=O)C(O)(c1ccccc1)c1ccccc1",
    "cat": "inactive"
  },
  {
    "compound": "CCCCCCCCSC(=O)Oc1cc(Cl)nnc1-c1ccccc1",
    "cat": "inactive"
  },
  {
    "compound": "CC(C)(O)C(Cl)(Cl)Cl",
    "cat": "inactive"
  },
  {
    "compound": "O=S1(=O)OCCO1",
    "cat": "inactive"
  },
  {
    "compound": "Cc1ccc(Cl)c(O)c1",
    "cat": "inactive"
  },
  {
    "compound": "OP(O)c1ccccc1",
    "cat": "inactive"
  },
  {
    "compound": "NC(=O)CS(=O)C(c1ccccc1)c1ccccc1 (stereo unspecified)",
    "cat": "inactive"
  },
  {
    "compound": "CCCCCCCCBr",
    "cat": "inactive"
  }
]

---

- target desc: Cytochrome P450 2D6 (Homo sapiens)
- assay info: Cytochrome P450 Family 2 Subfamily D Member 6 (CYP2D6) small molecule antagonists: luciferase reporter qHTS assay (AID 1671196); note: nearly all actives have a fitted effect of over 50% in size
- conditions: P450-Glo CYP2D6 enzyme assay, luciferin luminescence, 1 h; series mostly up to 115 µM
Records with an inconclusive call do not appear. Active and inactive are the calls of the source. Calls follow the shape of the dose curve; as a rule, active = well fitted inhibition curve with a large enough effect in the repeat runs; inconclusive = weak or mixed curves; inactive = no such curve, though single readings can be large or run the other way.
Possible outcomes: yes (1) = active, no (0) = inactive

[
  {
    "compound": "OP(O)c1ccccc1",
    "cat": "no (0)"
  },
  {
    "compound": "NC1(c2ccccc2)CCCCC1",
    "cat": "yes (1)"
  },
  {
    "compound": "COC(=O)c1ccccc1CS(=O)(=O)NC(=O)Nc1nc(OC)cc(OC)n1",
    "cat": "no (0)"
  },
  {
    "compound": "CC(Cl)(Cl)Cl",
    "cat": "no (0)"
  },
  {
    "compound": "C#CCOC(=O)/C=C(C)/C=C/CC(C)CCCC(C)C (stereo not drawn)",
    "cat": "no (0)"
  },
  {
    "compound": "CCCN1CCC[C@@H]2Cc3nc(N)ncc3C[C@H]21",
    "cat": "yes (1)"
  },
  {
    "compound": "BrCC1CO1 (stereo not drawn)",
    "cat": "no (0)"
  },
  {
    "compound": "CC(C)(N)Cc1ccccc1Cl",
    "cat": "yes (1)"
  },
  {
    "compound": "CON(C)C(=O)Nc1ccc(Br)cc1",
    "cat": "no (0)"
  },
  {
    "compound": "C=CCc1cc(OC)c2c(c1)OCO2",
    "cat": "yes (1)"
  },
  {
    "compound": "O=C(O)C(Br)(Br)Br",
    "cat": "no (0)"
  },
  {
    "compound": "CCCOc1nn(C(=O)NS(=O)(=O)c2ccccc2C(=O)OC)c(=O)n1C",
    "cat": "no (0)"
  },
  {
    "compound": "CCC(=O)OC1(c2ccccc2)CCN(C)CC1",
    "cat": "yes (1)"
  },
  {
    "compound": "N=C(N)[Se]",
    "cat": "no (0)"
  },
  {
    "compound": "NNCc1ccccc1",
    "cat": "yes (1)"
  },
  {
    "compound": "O=c1[nH]oc2c1CCNC2",
    "cat": "no (0)"
  },
  {
    "compound": "CCCOC(=O)c1cncn1C(C)c1ccccc1 (stereo not drawn)",
    "cat": "no (0)"
  },
  {
    "compound": "CC(C)N(Cc1ccccc1)C(=O)C(C)(C)C",
    "cat": "no (0)"
  }
]
